# assay-target: recombinant soluble homotrimeric HA of A/northern shoveler/California/HKWF115/07 (H6) (Influenza A virus A/northern shoveler/California/HKWF115/2007(H6N1))
# experimental-protocol: HA microarray, BCC supernatant
# condition-summary: remark: other sources report otherwise
readout: Trimeric HA Binding: RLU (RLU)
Provide the reading as a plain figure in RLU.

Past entries and their recorded results:
binder	experimental-value
TCN-529 (5297_H01) (antibody, V domains shown) VH: QITLRESGPTLVKPTQTLTLTCTFSGFSLSTNGVNVGWIRQPPGKALEWLALIYWDDDKRYSPSLKRRLTITKDTSKNQVVLTLTNMDPVDTATYYCAHRPDFYGDFEYWGPGTLVTVSS VL: QSALTQPASVSGSPGQSITISCTGSSSDIGGYNYVSWYQQHPGKAPKLMIYDVNNRPSGVSNRFSGSKSGNTASLTISGLQTDDEADYYCGSYTGSPHYVFGTGTKVTVL	533
TCN-521 (3280_D18) (antibody, V domains shown) VH: EVQLVQSGGGLVQPGGSLRLACVVSGFTVTSNYITWVRQAPGKGLEWVSVIYSHGRAYYSASVNGRFTISRHTSKNTVYLEMNSLRPEDTAVYYCAGGGLVGGYDEYFFDYWGQGTLATVSS VL: ETVLTQSPGTLSLTPGERATLSCRVGQSVSGSHLAWYQQKPGQAPRLLIYGASSRATGIPDRFGGSVSGTDFTLTISRLEPEDSAVYYCQQYGDSRYTFGQGTKLEIK	48000

Query :: // returns reported Trimeric HA Binding: RLU for input TCN-557 (5081_A04) (antibody, V domains shown) VH: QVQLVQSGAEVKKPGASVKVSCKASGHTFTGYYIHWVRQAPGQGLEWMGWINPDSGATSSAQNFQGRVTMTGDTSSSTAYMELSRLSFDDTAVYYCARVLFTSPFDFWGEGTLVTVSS VL: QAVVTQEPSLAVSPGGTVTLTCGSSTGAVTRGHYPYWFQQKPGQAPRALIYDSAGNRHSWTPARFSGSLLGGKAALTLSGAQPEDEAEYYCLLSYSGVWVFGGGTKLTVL
Result :: 24400
